- targetEntity: human α2A adrenoceptor (Homo sapiens, UniProt P08913)
- Construct: expressed in transfected cells
- Sequence (P08913 whole entry): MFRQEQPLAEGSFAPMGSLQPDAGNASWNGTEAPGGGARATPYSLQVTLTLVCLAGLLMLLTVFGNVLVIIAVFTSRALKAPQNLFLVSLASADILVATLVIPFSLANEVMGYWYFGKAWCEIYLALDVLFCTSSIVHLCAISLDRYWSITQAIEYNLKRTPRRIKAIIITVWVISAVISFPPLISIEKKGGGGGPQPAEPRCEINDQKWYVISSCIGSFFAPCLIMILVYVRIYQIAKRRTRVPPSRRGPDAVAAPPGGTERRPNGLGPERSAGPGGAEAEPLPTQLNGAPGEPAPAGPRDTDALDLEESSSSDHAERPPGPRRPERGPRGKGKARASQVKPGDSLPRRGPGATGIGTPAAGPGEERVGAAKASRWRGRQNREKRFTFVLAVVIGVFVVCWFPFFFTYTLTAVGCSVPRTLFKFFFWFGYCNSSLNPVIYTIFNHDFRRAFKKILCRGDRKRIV
- measurementNotes: Binding affinity at the human α2A adrenergic receptor
pKi: −log10 of the molar value. Where a name gives a salt, the structure may show the parent alone.
# pKi per record follows

[
  {
    "compound": "COC(=O)C1=C(C)NC(=O)N(C(=O)NCCCN2CCC3(CC2)OCc2ccccc23)C1c1ccc(F)c(F)c1 (centres unmarked) [Example 20]",
    "pKi": 7.00
  },
  {
    "compound": "COC(=O)C1=C(C)NC(=O)N(C(=O)NCCCN2CCC3(CC2)OCc2ccccc23)C1c1ccc2nonc2c1 (single isomer, unassigned) [Example 18, HYDROCHLORIDE]",
    "pKi": 7.24
  }
]

---

# Ki per record follows
- targetEntity: human GALR3 receptor (Homo sapiens)
- Construct: expressed in transfected cells
- Sequence (O60755 1-368): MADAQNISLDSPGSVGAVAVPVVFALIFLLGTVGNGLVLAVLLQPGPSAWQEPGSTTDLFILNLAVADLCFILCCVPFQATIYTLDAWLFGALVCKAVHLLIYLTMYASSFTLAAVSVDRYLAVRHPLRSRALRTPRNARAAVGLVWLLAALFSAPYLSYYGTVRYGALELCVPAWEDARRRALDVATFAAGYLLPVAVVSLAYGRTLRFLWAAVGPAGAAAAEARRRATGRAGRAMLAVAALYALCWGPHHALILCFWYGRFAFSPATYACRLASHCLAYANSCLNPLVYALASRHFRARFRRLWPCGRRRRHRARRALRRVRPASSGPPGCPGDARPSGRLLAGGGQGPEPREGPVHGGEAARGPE
- measurementNotes: Binding affinity at the human GALR3 receptor
- conditionParameters: Table 3a; read-out: hGALR3 Ki
Structures can show the parent of a compound that is named as a salt.
measureName: Ki

[
  {
    "compound": "COCC1=C(C(=O)OC)C(c2ccc(F)c(F)c2)N(C(=O)NCCCN2CCC(c3cccc4ccccc34)CC2)C(=O)N1 (single isomer, unassigned; (+))",
    "obsValue": "> 50 µM"
  },
  {
    "compound": "Cc1cc(O)cc(O)c1/C=N/c1ccc(-c2cn3ccccc3n2)cc1",
    "obsValue": "> 50 µM"
  },
  {
    "compound": "COCC1=C(C(=O)OC)C(c2ccc(F)c(F)c2)N(C(=O)NCCCN2CCC(c3cccc(NC(C)=O)c3)CC2)C(=O)N1 (single isomer, unassigned; (-))",
    "obsValue": "> 50 µM"
  },
  {
    "compound": "CCCCN(CCCC)c1ccc(CNC[C@H]2CC[C@H](NC(=O)c3cccc4ccccc34)CC2)cc1",
    "obsValue": "5.98 µM"
  },
  {
    "compound": "CCC1=C(C(=O)O)C(c2ccc(F)c(F)c2)N(C(=O)NCCCN2CCC3(CC2)OCc2ccccc23)C(=O)N1 (single isomer, unassigned; (+)) [Example 4, HYDROCHLORIDE]",
    "obsValue": "> 50 µM"
  },
  {
    "compound": "CN1CN(c2ccccc2)C2(CCN(CCCC(=O)c3ccc(F)cc3)CC2)C1=O",
    "obsValue": "> 50 µM"
  },
  {
    "compound": "Fc1ccc(C(c2ccc(F)cc2)N2CCN(C/C=C/c3ccccc3)CC2)cc1",
    "obsValue": "> 50 µM"
  },
  {
    "compound": "CCN1c2ccc(/C=C3\\SC(=S)NC3=O)cc2C(C)=CC1(C)C",
    "obsValue": "> 50 µM"
  },
  {
    "compound": "COCC1=C(C(=O)OC)C(c2ccc(F)c(F)c2)N(C(=O)NCCCN2CC=C(c3cccc(NC(C)=O)c3)CC2)C(=O)N1 (stereo not drawn)",
    "obsValue": "> 50 µM"
  },
  {
    "compound": "O=C(CCCN1CCC(NC(=O)c2ccccc2)CC1)c1ccc(Cl)cc1",
    "obsValue": "> 50 µM"
  },
  {
    "compound": "CCCCN(CCCC)c1ccc(CN2CCC(CNC(=O)N3C(=O)NC(C)=C(C(=O)OC)C3c3ccc4nonc4c3)CC2)cc1 (stereo not drawn)",
    "obsValue": "21.1 µM"
  },
  {
    "compound": "COCC1=C(C(=O)OC)[C@H](c2ccc(F)c(F)c2)N(C(=O)NCCCN2CCC(c3cccc(NC(C)=O)c3)CC2)C(=O)N1",
    "obsValue": "> 50 µM"
  }
]

---

- targetEntity: rat 5HT2C receptor (Rattus norvegicus, UniProt P08909)
- Construct: expressed in transfected cells
- Sequence (P08909 33-460): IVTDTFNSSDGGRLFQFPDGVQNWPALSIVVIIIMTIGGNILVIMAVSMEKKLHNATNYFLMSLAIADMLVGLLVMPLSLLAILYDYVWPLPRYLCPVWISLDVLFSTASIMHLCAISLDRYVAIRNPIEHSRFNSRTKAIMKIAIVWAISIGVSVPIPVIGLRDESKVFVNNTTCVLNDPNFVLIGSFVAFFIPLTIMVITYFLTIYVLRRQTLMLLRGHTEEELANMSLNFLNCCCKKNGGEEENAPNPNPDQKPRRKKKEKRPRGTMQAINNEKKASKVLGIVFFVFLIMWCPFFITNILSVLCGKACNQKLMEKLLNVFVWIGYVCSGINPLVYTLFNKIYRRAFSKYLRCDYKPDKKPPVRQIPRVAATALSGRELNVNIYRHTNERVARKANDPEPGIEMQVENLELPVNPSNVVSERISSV
- measurementNotes: Binding affinity at the rat 5HT2C receptor
- conditionParameters: Table 3a; read-out: r5HT2C Ki
- Excerpt: The design of such compounds can be optimized by determining their binding affinity at the recombinant MCH1, NPY1, NPY2, Gal1, Gal2, Gal3, and 5HT2C receptors. […]
measureName: Ki

[
  {
    "substance": "2-(3,4-DIFLUOROPHENYL)4,5-DIHYDROIMIDAZOLE-1-CARBOXYLIC ACID {3-[4-PHENYL-4-(4-BROMO-5-METHYLTHIOPNEN-2-YL)]-PROPYL}-AMIDE [Example 19]",
    "targetEntity": "rat 5HT2C receptor (Rattus norvegicus, UniProt P08909)",
    "measureName": "Ki",
    "obsValue": "11.7 µM"
  }
]

---

- targetEntity: human Dopamine D2 receptor (Homo sapiens)
- Construct: purchased BioSignal, Inc. (Montreal, Canada)
- Sequence (P14416 whole entry): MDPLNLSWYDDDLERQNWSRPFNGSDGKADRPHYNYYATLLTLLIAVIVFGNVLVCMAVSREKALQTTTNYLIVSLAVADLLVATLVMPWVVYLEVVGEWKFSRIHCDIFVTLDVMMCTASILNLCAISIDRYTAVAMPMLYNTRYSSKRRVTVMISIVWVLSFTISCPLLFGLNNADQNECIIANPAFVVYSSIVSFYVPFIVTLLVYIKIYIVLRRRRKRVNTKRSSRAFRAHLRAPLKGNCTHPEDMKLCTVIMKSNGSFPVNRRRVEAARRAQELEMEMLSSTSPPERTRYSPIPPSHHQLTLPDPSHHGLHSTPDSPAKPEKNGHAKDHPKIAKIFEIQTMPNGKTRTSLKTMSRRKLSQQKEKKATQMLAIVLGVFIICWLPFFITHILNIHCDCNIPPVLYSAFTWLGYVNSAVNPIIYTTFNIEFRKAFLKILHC
- measurementNotes: Binding affinity at the human dopamine D2 receptor
- conditionParameters: Table 3c; read-out: hD2 Ki
Mark true only when Ki stays strictly below 0.2 µM. Values equal to the cut-off are false.

[
  {
    "molecule": "COc1ccc(C(=O)CCCN2CCC(c3cccc(NC(=O)C(C)C)c3)CC2)c(OC)c1",
    "group": "false"
  },
  {
    "molecule": "CCC1=C(C(=O)OCc2ccccc2)C(c2ccc(F)cc2F)N(C(=O)NCCCN2CCC(c3cccc(NC(C)=O)c3)CC2)C(=O)N1 (stereo not shown)",
    "group": "true"
  },
  {
    "molecule": "CC(C)C(=O)Nc1cccc(C2CCN(CC[C@H](Oc3ccc(Cl)cc3)c3ccccc3)CC2)c1",
    "group": "false"
  },
  {
    "molecule": "CC(=O)Nc1cccc(C2CCN(CCCNC(=O)N3C(=O)OC(C)(C)C3c3ccc(F)c(F)c3)CC2)c1 (stereo not shown)",
    "group": "false"
  },
  {
    "molecule": "CC(=O)c1ccccc1O[C@H](CCN1CCC(c2cccc(NC(=O)C(C)C)c2)CC1)c1ccccc1",
    "group": "false"
  },
  {
    "molecule": "CC(C)C(=O)Nc1cccc(C2CCN(CC[C@H](Oc3ccccc3F)c3ccccc3)CC2)c1",
    "group": "true"
  },
  {
    "molecule": "CC(C)C(=O)Nc1cccc(C2CCN(CC[C@H](Oc3cc(F)ccc3F)c3ccccc3)CC2)c1",
    "group": "true"
  }
]

---

# Ki per record follows
- targetEntity: rat MCH1 receptor (Rattus norvegicus, UniProt P97639)
- Construct: expressed in transfected cells
- Sequence (P97639 whole entry): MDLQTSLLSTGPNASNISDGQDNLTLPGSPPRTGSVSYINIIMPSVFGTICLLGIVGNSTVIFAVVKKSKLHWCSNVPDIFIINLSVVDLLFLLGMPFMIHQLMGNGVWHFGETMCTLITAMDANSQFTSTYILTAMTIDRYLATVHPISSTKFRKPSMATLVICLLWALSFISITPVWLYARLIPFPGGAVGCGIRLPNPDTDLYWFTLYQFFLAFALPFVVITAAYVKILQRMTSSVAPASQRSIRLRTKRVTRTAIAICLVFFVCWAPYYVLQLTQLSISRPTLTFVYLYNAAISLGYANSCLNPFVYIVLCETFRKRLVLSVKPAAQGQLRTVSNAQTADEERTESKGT
- measurementNotes: Binding affinity (Ki) at the rat MCH1 receptor
- conditionParameters: Examples 38-141; read-out: Ki (nM) rMCH1
measureName: Ki (nM)

[
  {
    "compound": "COC(CCN1CCC(c2cccc(NC(=O)C(C)C)c2)CC1)c1ccccc1 (stereo not drawn)",
    "obsValue": 29.1
  },
  {
    "compound": "COCC1=C(C(=O)OC)[C@H](c2ccc(F)c(F)c2)N(C(=O)NCCCN2CCC(c3cccc(NC(=O)CC(C)C)c3)CC2)C(=O)N1",
    "obsValue": 0.6
  },
  {
    "compound": "CC(C)C(=O)Nc1cccc(C2CCN(CC[C@H](Oc3cccc4ccccc34)c3ccccc3)CC2)c1",
    "obsValue": 377
  },
  {
    "compound": "CCC(=O)Nc1cccc(C2CCN(CCCNC(=O)C3=C(COC)NC(=O)N[C@@H]3c3ccc(F)c(F)c3)CC2)c1",
    "obsValue": 8.16
  },
  {
    "compound": "COc1cc(C#N)ccc1O[C@@H](CCN1CCC(c2cccc(NC(=O)C(C)C)c2)CC1)c1ccccc1",
    "obsValue": 12.8
  },
  {
    "compound": "CCS(=O)(=O)Nc1cccc(C2CCN(CCCC(=O)c3ccc(Cl)cc3)CC2)c1",
    "obsValue": 272
  },
  {
    "compound": "CCC1=C(C(=O)OCc2ccccc2)C(c2ccc(F)cc2F)N(C(=O)NCCCN2CCC(c3cccc(NC(C)=O)c3)CC2)C(=O)N1 (stereo not drawn)",
    "obsValue": 0.81
  },
  {
    "compound": "COCC1=C(C(=O)OC)[C@H](c2ccc(F)c(F)c2)N(C(=O)NCCCN2CCC(c3cccc(NC(=O)CC(C)(C)C)c3)CC2)C(=O)N1",
    "obsValue": 2.72
  },
  {
    "compound": "COCC1=C(C(=O)NCCCN2CCC(c3cccc(NC(=O)CC(C)(C)C)c3)CC2)[C@@H](c2ccc(F)c(F)c2)NC(=O)N1",
    "obsValue": 225
  },
  {
    "compound": "CN(C)S(=O)(=O)Nc1cccc(C2CCN(CCCC(=O)c3ccc(Cl)cc3)CC2)c1",
    "obsValue": 511
  },
  {
    "compound": "CC(C)C(=O)Nc1cccc(C2CCN(CCCC(=O)c3ccc(Oc4ccccc4)cc3)CC2)c1",
    "obsValue": 192
  },
  {
    "compound": "CC(C)C(=O)Nc1cccc(C2CCN(CC[C@H](Oc3cc(F)ccc3F)c3ccccc3)CC2)c1",
    "obsValue": 5.9
  },
  {
    "compound": "CC(=O)c1ccccc1O[C@@H](CCN1CCC(c2cccc(NC(=O)C(C)C)c2)CC1)c1ccccc1",
    "obsValue": 50
  },
  {
    "compound": "CC(=O)Nc1cccc(C2CCN(CCCC(=O)c3ccc(C(C)C)cc3)CC2)c1",
    "obsValue": 382
  },
  {
    "compound": "CC(=O)c1ccccc1O[C@H](CCN1CCC(c2cccc(NC(=O)C(C)C)c2)CC1)c1ccccc1",
    "obsValue": 14.8
  },
  {
    "compound": "CC(C)C(=O)Nc1cccc(C2CCN(CC[C@H](Oc3ccc(Oc4ccccc4)cc3)c3ccccc3)CC2)c1",
    "obsValue": 48.1
  },
  {
    "compound": "COCC1=C(C(=O)NCCCN2CCC(c3cccc(NC(=O)CC(C)C)c3)CC2)[C@@H](c2ccc(F)c(F)c2)NC(=O)N1",
    "obsValue": 34.3
  },
  {
    "compound": "COc1cccc(CN2CCC(c3cccc(NC(=O)C(C)C)c3)CC2)c1",
    "obsValue": 187
  },
  {
    "compound": "CC(=O)Nc1cccc(C2CCN(CCCNC(=O)N3C(=O)OC[C@@H]3c3cc(F)c(F)c(F)c3)CC2)c1",
    "obsValue": 22.3
  },
  {
    "compound": "CC(=O)Nc1cccc(C2CCN(CCCNC(=O)N3C(=O)NC4=C(C(=O)OC4)C3c3ccc4nonc4c3)CC2)c1 (stereo not drawn)",
    "obsValue": 204
  },
  {
    "compound": "CC(C)C(=O)Nc1cccc(C2CCN(CC[C@@H](O)c3ccccc3)CC2)c1",
    "obsValue": 16.6
  },
  {
    "compound": "CC(C)C(=O)Nc1cccc(C2CCN(CC[C@H](Oc3ccccc3F)c3ccccc3)CC2)c1",
    "obsValue": 6.6
  },
  {
    "compound": "CC(C)C(=O)Nc1cccc(C2CCN(CC[C@H](Oc3cc(C(F)(F)F)ccc3F)c3ccccc3)CC2)c1",
    "obsValue": 3.3
  },
  {
    "compound": "COc1ccc(C(=O)CCCN2CCC(c3cccc(NC(C)=O)c3)CC2)c(OC)c1",
    "obsValue": 630
  },
  {
    "compound": "Cc1ccc(C(=O)CCCN2CCC(c3cccc(NC(=O)Cc4ccccc4)c3)CC2)cc1C",
    "obsValue": 357
  },
  {
    "compound": "CCC(C)C(=O)Nc1cccc(C2CCN(CCCNC(=O)C3=C(COC)NC(=O)N[C@@H]3c3ccc(F)c(F)c3)CC2)c1 (stereo partly drawn)",
    "obsValue": 22.1
  },
  {
    "compound": "CC(=O)Nc1cccc(C2CCN(CCCNC(=O)N3C(=O)OC(C)(C)C3c3ccc(F)c(F)c3)CC2)c1 (stereo not drawn)",
    "obsValue": 48.6
  },
  {
    "compound": "CC(C)C(=O)Nc1cccc(C2CCN(CC[C@H](Oc3cccc(Cl)c3)c3ccccc3)CC2)c1",
    "obsValue": 3.1
  },
  {
    "compound": "Cc1ccc(C(=O)CCCN2CCC(c3cccc(NS(=O)(=O)C(C)C)c3)CC2)cc1C",
    "obsValue": 615
  },
  {
    "compound": "O=C(CCCN1CCC(c2cccc(NC(=O)C3CCCCC3)c2)CC1)c1ccc(Cl)cc1",
    "obsValue": 197
  }
]
